- Assay Protocol: qHTS assay to identify aromatase inhibitors - cell viability counter screen (AID 743084);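 note: cells stimulated with testosterone during compound exposure; nearly all actives have a fitted effect of over 55% in size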
- Condition Summary: MCF-7 aro ERE viability, CellTiter-Fluor, 24 h; series mostly up to 70.3 µM
Inconclusive results are not listed. Calls of active or inactive are those of the source. Calls come from the whole dose curve; as a rule, active = well fitted cell-killing curve with a large enough effect in the repeat runs; inconclusive = weak or mixed curves, or effect the other way; inactive = no such curve, though single readings can be large or run the other way.
Possible outcomes: active, inactive

# Compound, Label Class
measured = [
    ("CC=C(Cl)Cl", "inactive"),
    ("CCOc1cccc(-n2cc(C(=O)N3CCN(c4cc(C(=O)O)c5ccccc5c4)CC3)nc2-c2ccc(C)cc2)c1", "inactive"),
    ("O=C(/C=C/c1ccc(O)c(O)c1)O[C@@H]1C[C@@](OC(=O)/C=C/c2ccc(O)c(O)c2)(C(=O)O)C[C@@H](O)[C@@H]1O", "inactive"),
    ("Oc1cc2c(cc1O)[C@H]1c3ccc(O)c(O)c3OC[C@@]1(O)C2", "active"),
    ("CC(=O)c1ccc([N+](=O)[O-])cc1", "inactive"),
    ("NC1[C@H]2CN(c3nc4c(cc3F)c(=O)c(C(=O)O)cn4-c3ccc(F)cc3F)C[C@@H]12 (some centres not stated)", "inactive"),
    ("CCC1(CO)COCOC1", "inactive"),
]
